Quick list: pKa per entry.
protocol summary: pKa of basic centres (Table 1)
Assay type: physicochemical
measurement setup: first base, e.g., an aliphatic primary, secondary, or tertiary amine; read-out: pKa (Base 1)
Just the number, please, no unit attached.

Consider the reported pKa for these compounds:
query: Using known records, supply pKa for CNC[C@@H](Cc1cccnc1)c1ccc(Cl)c(Cl)c1
result: 9.6

query: Return reported pKa. Input compound: CNC[C@H](c1ccc(Cl)c(Cl)c1)[C@H](O)c1ccccc1SC
result: 9.4

query: Supply recorded pKa for CNCC(c1ccc(Br)c(Cl)c1)[C@H](O)c1ccccc1 (some centres unmarked) here.
result: 9.4

---
query: Return pKa (reported value) for this compound: CNC[C@H](c1ccc2ccccc2c1)[C@H](OCC(=O)NC1CCC1)c1ccccc1
result: 9.6

query: Supply pKa value. Item: CN(C)C[C@H](c1ccc2ccccc2c1)[C@H](OCCO)c1ccccc1
result: 8.9

----------
system tested: human norepinephrine transporter (Homo sapiens (Human))
Sequence (P23975 whole entry): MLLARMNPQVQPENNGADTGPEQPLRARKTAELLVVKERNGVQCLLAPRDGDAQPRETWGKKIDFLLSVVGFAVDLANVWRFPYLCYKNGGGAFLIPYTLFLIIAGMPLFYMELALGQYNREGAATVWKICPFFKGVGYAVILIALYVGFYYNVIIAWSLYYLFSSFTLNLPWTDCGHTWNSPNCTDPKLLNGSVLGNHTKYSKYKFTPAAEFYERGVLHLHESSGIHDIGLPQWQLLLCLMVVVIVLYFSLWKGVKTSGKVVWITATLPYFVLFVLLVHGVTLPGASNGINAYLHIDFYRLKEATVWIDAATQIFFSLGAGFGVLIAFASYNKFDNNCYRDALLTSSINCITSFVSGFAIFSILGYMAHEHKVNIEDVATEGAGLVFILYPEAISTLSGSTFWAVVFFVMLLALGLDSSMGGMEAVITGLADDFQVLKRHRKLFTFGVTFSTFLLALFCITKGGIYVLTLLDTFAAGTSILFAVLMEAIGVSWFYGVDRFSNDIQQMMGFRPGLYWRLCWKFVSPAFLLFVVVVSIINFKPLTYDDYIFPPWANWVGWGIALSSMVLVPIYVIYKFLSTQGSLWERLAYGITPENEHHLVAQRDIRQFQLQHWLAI
protocol summary: Human NET (norepinephrine transporter) uptake assay
Format: cell-based
measurement setup: read-out: hNET Ki
pKi: −log10 of the molar value.
Please note: Fulfilled applies when pKi is 8 or greater, and Not fulfilled applies otherwise.

query: Does pKi meet or surpass 8 for CNC[C@H](c1ccc2ccccc2c1)[C@@H](Cl)c1ccccc1 ?
result: Fulfilled

query: Tell me whether pKi is at least 8 here: CNC[C@H](c1ccc2ccccc2c1)[C@H](O)c1cc(F)cc(F)c1 (racemic) [Compound 41]
result: Fulfilled

query: Please check the record CNC[C@H](c1ccc2ccccc2c1)[C@@H](O)c1ccccc1F and state if its pKi is at or above 8.
result: Fulfilled

Others:
query: Determine whether measured pKi meets or exceeds 8 for CNCC(c1ccc(Cl)c(Cl)c1)[C@H](O)c1ccccc1 (mixture of isomers)
result: Fulfilled

query: Test whether the compound CNC[C@H](c1ccc(Cl)c(Cl)c1)[C@H](O)c1cccc(I)c1 (single isomer, unassigned) records pKi of 8 or higher.
result: Not fulfilled

query: Is pKi for CNC[C@H](c1ccc2ccccc2c1)[C@H](O)c1cc(F)cc(F)c1 (single isomer, unassigned) [Compound 37] at or above 8?
result: Fulfilled

query: Identify whether the reported pKi of the following compound is 8 or greater: CNC[C@@H](c1ccc2ccccc2c1)[C@@H](O)c1cccnc1 [Compound 49]
result: Fulfilled

query: In plain terms: is recorded pKi at least 8 for CCCNC(=O)CO[C@H](c1ccccc1)[C@H](CNC)c1ccc2ccccc2c1 ?
result: Fulfilled

query: Does pKi meet or surpass 8 for CNCC(Cc1ccccc1C)c1ccc2ccccc2c1 (stereo not drawn) [Compound 39] ?
result: Fulfilled

query: Is it the case that CNC[C@H](c1ccc2ccccc2c1)[C@H](OCc1noc(C)n1)c1ccccc1 has pKi reaching or exceeding 8?
result: Fulfilled

query: Would you say CNC[C@H](c1ccc2ccccc2c1)[C@@H](F)c1ccccc1 shows pKi at minimum 8?
result: Fulfilled

query: # check: pKi of CNC[C@H](c1ccc(-c2ccccc2)cc1)[C@H](O)c1ccccc1 (racemic) is greater than or equal to 8
result: Not fulfilled

----------
system tested: CYP2D6 (Homo sapiens (Human), UniProt P10635)
Sequence (P10635 whole entry): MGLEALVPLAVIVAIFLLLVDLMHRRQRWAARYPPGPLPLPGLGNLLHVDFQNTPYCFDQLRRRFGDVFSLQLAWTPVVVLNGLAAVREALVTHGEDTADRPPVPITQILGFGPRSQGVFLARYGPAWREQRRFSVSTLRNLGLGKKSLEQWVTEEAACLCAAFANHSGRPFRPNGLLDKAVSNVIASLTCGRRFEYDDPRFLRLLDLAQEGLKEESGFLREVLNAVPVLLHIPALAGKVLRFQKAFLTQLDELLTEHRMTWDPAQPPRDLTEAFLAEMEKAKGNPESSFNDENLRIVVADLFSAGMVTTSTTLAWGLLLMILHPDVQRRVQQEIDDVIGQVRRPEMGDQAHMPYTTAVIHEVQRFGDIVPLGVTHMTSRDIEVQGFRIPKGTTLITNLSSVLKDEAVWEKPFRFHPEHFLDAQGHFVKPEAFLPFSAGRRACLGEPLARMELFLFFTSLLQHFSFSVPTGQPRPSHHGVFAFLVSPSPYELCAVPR
protocol summary: Cytochrome P450 inhibition assay, recombinant CYP2D6 (MAMC substrate)
Format: in vitro ADME
measurement setup: recombinant enzyme
pIC50: −log10 of the molar value.
Use 6 as the dividing line for pIC50, with the line itself on the YES side and lower values as NO.

Here are 2 compounds together with their reported answers.
query: // inclusive: pIC50 at least 6? input: CN1CCO[C@H](c2ccccc2)[C@@H](c2ccc3ccccc3c2)C1 [Compound 77]
result: NO

query: # bool: pIC50 of CNC[C@H](c1ccc(Cl)c(Cl)c1)[C@@H](O)c1cccc(NS(=O)(=O)C(F)(F)F)c1 [Compound 127] >= 6
result: NO

---
query: API: above_or_equal(metric=pIC50, cutoff=6) for item CNCC(Cc1ccccc1CO)c1ccc2ccccc2c1 (stereo not drawn) [Compound 90]
result: YES

query: Decide: pIC50 of CNC[C@H](c1ccc(Br)c(Cl)c1)[C@@H](O)c1ccccc1 [Compound 21] >= 6?
result: YES

query: Hi team, for CCCNC(=O)CO[C@H](c1ccccc1)[C@H](CNC)c1ccc2ccccc2c1 [Compound 29] , is the recorded pIC50 at or above 6?
result: YES

query: Check this compound for pIC50 at or above 6: CNC[C@H](c1ccc(Cl)c(Cl)c1)[C@H](O)c1cccc(OC)n1 [Compound 167]
result: YES

----------
system tested: human norepinephrine transporter (Homo sapiens (Human))
protocol summary: Human NET (norepinephrine transporter) uptake assay
Type: cell-based
measurement setup: read-out: hNET Ki
assay metric: Ki (nM)
Number only, in nM; omit the unit.

query: Provide one value: measured Ki of CNCC(Cc1cccs1)c1ccc2ccccc2c1 (racemic) [Compound 40]
result: 3.2

query: Read off the recorded Ki for CNC[C@H](c1ccc2ccccc2c1)[C@H](OCc1cccn(C)c1=O)c1ccccc1 [Compound 31]
result: 2.4

query: Fill in reported Ki for this entry: CNCC(c1ccc2ccccc2c1)C(OC)c1ccccc1 (stereo not drawn) [Compound 38]
result: 3.1

query: Identify Ki associated with the compound CNC[C@@H](c1ccc(Cl)c(Cl)c1)[C@@H](O)c1ccccc1[S+](C)[O-] (stereo partly drawn) [Compound 128]
result: 2630

query: Supply measured Ki of CNCC(c1ccc2ccccc2c1)[C@H](CO)c1ccccc1 (single isomer, unassigned) [Compound 25] in your reply.
result: 2.2

query: Supply recorded Ki for NC[C@@H](Cc1ccccc1O)c1ccc2ccccc2c1 [Compound 133] here.
result: 34.6

query: Report Ki, nothing else, for this compound: CNC[C@H](c1ccc2ccccc2c1)[C@H](OCC(=O)NC1CCC1)c1ccccc1 [Compound 8]
result: 1.4

query: Give recorded Ki. CNC[C@H](c1ccc2ccccc2c1)[C@H](O)c1ccc(Cl)nc1 [Compound 26]
result: 2.2

Next:
query: Assign Ki to the following record: CNCC(Cc1ccccc1O)c1ccc2ccccc2c1 (stereo not drawn) [Compound 52]
result: 4.1

query: Answer with the recorded Ki for the compound listed here: CN1CO[C@H](c2ccccc2)[C@@H](c2ccc3ccccc3c2)C1 [Compound 4]
result: 1.4

query: Return Ki for the following compound: c1ccc([C@@H]2OCCNC[C@H]2c2ccc3ccccc3c2)cc1 [Compound 64]
result: 7.2

query: Identify Ki associated with the compound CCc1cccc([C@@H](O)[C@H](CNC)c2ccc(Cl)c(Cl)c2)c1 [Compound 159]
result: 55.4

query: Quote Ki reported for CNC[C@H](c1ccc2ccccc2c1)[C@H](OCC(=O)N1CC[C@@H](O)C1)c1ccccc1 [Compound 34] please.
result: 2.7

query: Output measured Ki for this item: CNC[C@H](c1ccc2ccccc2c1)[C@H](OCc1nc(C(=O)OC)co1)c1ccccc1 [Compound 84]
result: 16.2

query: Give a short answer stating reported Ki for CNC[C@@H](Cc1ccc(C)s1)c1ccc2ccccc2c1 [Compound 44] .
result: 3.3

query: Provide Ki value for the following compound: CNC[C@H](c1ccc(Cl)c(Cl)c1)[C@H](O)c1cccc([N+](=O)[O-])c1 [Compound 102]
result: 55.2

query: Could you please provide reported Ki for CNC[C@H](c1ccc2ccccc2c1)[C@H](OCc1cc(C)no1)c1ccccc1 [Compound 20] ? Thanks!
result: 1.9

query: // Input: CNC[C@H](c1ccc2ccccc2c1)[C@H](OCC(=O)N1CCCC1)c1ccccc1 [Compound 50] . Output its Ki only.
result: 3.8

----------
protocol summary: pKa of basic centres (Table 1)
Format: physicochemical
measurement setup: first base, e.g., an aliphatic primary, secondary, or tertiary amine; read-out: pKa (Base 1)
assay metric: pKa
Number only, please.

query: Please give the documented pKa of CNCC(Cc1ccccc1OC)c1ccc2ccccc2c1 (stereo not drawn)
result: 10.1

query: Indicate the recorded pKa value for this molecule: c1ccc([C@@H]2OCCNC[C@H]2c2ccc3ccccc3c2)cc1
result: 9.3

query: Consider the molecule CNC[C@H](c1ccc(Cl)c(Cl)c1)[C@@H](O)c1cccc(N)c1 and give its recorded pKa.
result: 9.4

---
query: Return pKa (reported value) for this molecule: CNC[C@H](c1ccc2ccccc2c1)[C@H](OCC(=O)NCCO)c1ccccc1
result: 9.6

query: Input CNC[C@H](c1ccc(Cl)c(Cl)c1)[C@@H](O)c1cccc(Br)c1 , output reported pKa.
result: 9.4

query: Find the measured pKa of CNC[C@H](c1ccc2ccccc2c1)[C@H](OCC(=O)NC1CC1)c1ccccc1 and report it.
result: 9.6

query: Assign pKa to the following record: O[C@@H](c1ccccc1)[C@@H](CNCC(F)(F)F)c1ccc2ccccc2c1 (single isomer, unassigned)
result: 4.6

query: Answer with the recorded pKa of CNC[C@H](c1ccc2ccccc2c1)[C@H](OCC(=O)Nc1ccccc1)c1ccccc1 only.
result: 9.7

query: Fill in reported pKa for this entry: CNC[C@@H](c1ccc2ccccc2c1)[C@@H](OCC(N)=O)c1ccccc1
result: 9.6

query: Please give measured pKa of the following entry: CNC[C@H](c1ccc2ccccc2c1)[C@H](Cl)c1ccccc1
result: 9.5

query: Fill in pKa for record CNCC(Cc1ccccc1C)c1ccc2ccccc2c1 (stereo not drawn)
result: 10.1

query: Report pKa, nothing else, for this molecule: CNC[C@H](c1ccc2ccccc2c1)[C@H](O)c1ccncc1
result: 9.6

query: Recall and state the measured pKa for CNC[C@@H](c1ccc(Cl)c(Cl)c1)[C@@H](O)c1cccc(Br)c1 .
result: 9.4

query: Provide only the value of recorded pKa for CNC[C@@H](c1ccc2ccccc2c1)[C@@H](O)c1cccnc1
result: 9.6

query: Tell me its pKa given CNC[C@H](c1ccc2ccccc2c1)[C@H](OCC(=O)N1CCCC1)c1ccccc1 as the entry.
result: 9.6

query: Determine from records and report pKa for CCCNC(=O)CO[C@H](c1ccccc1)[C@H](CNC)c1ccc2ccccc2c1
result: 9.6

query: Fill in pKa for record CNC[C@H](c1ccc2ccccc2c1)[C@H](OCC(=O)N1CC[C@H](OC)C1)c1ccccc1
result: 9.6

query: Report measured pKa; entry is CNC[C@H](C[C@H](O)c1ccccc1)c1ccc2ccccc2c1
result: 10.1
